Values were extracted from PubChem BioAssay AID330.

# Tested on: P388 leukemia ip, CD2F1 mice, survival T/C
# experiment.summary: NCI In Vivo Anticancer Drug Screen. Data for tumor model P388 Leukemia (intraperitoneal) in CD2F1 (CDF1) mice
# condition.details: endpoint: median survival time; dose: 25.0 mg/kg/injection; schedule: Q01DX009 (ip); vehicle: Klucel (hydroxypropylcellulose) (HPC)
Toxic doses and inconclusive results are not listed. How the source made its calls: active means survival T/C of 150% or more; inactive means T/C below 125% in these data.
Classes used: True (active), False (inactive)

compound	group
CCCCC(=O)Nc1ncc([N+](=O)[O-])s1	False
C=C(C(C)=O)c1ccccc1	False
C=CCCCCCCCCCSC(=N)N	False
CC(=O)NC(C=O)C(O)C(O)C(O)C(=O)O (configuration not stated) (tested in a mixture with another compound)	False
CN(C)C(C#N)C(=O)c1ccccc1 (configuration not stated)	False
CC1=C2C(=CO[C@H](C)[C@H]2C)C(=O)C(C(=O)O)=C1O	False
C1=NC(c2ccccn2)=NNC(c2ccccn2)=C1c1ccccc1	False
C1CCNCC1.O=C([CH-]C(=O)C(F)(F)F)c1cccs1.O=C([CH-]C(=O)C(F)(F)F)c1cccs1.O=C([CH-]C(=O)C(F)(F)F)c1cccs1.O=C([CH-]C(=O)C(F)(F)F)c1cccs1.[Eu+3]	False
O=S(=O)(CCCl)c1ccc2ccccc2c1	False
CCCSCCC(C)(N)C(=O)O (configuration not stated)	False
N#Cc1cc([N+](=O)[O-])cnc1Sc1ncccn1	False
C[N+](C)(C)C.O=C([CH-]C(=O)C(F)(F)F)c1ccccc1.O=C([CH-]C(=O)C(F)(F)F)c1ccccc1.O=C([CH-]C(=O)C(F)(F)F)c1ccccc1.O=C([CH-]C(=O)C(F)(F)F)c1ccccc1.[Eu+3]	False
CC(=O)Nc1nc(CCl)cs1	False
CCOC(=O)c1ccc(N(CCC2CO2)S(=O)(=O)c2ccc(C)cc2)cc1 (configuration not stated)	False
O=[N+]([O-])c1cnc[nH]1	False
O=C1c2cc(Cl)ccc2-c2c(NC(=O)C(Cl)Cl)cc(Cl)cc21	False
CCCCCCCCCCCCCCCCCCN(CCCCCCCCCCCCCCCCCC)c1ccc(/C=C/c2ccnc3ccccc23)cc1	False
O=C(O)c1ccc2c3c(ccc(C(=O)O)c13)CC2	False
CCC(C)C(=O)OC1CC2(C)C(c3ccoc3)OC(=O)CC23OC2(C)OC34C(OC(=O)C(C)C)C3(O)C(OC(=O)C5(C)OC5C)C5(C)CC3(O)C(C)(C5CC(=O)OC)C14O2 (configuration not stated)	False
Clc1cncc(N2CCNCC2)n1	False
C[C@@H](CN1CC(=O)NC(=O)C1)N1CC(=O)NC(=O)C1	True
O=[N+]([O-])c1cc(C(F)(F)F)ccc1F	False
